target of assay: T1, Mutant Human HTT Exon 1 48Q (GST) (human)
T1 construct: recombinant His- and GST-tagged fusion; also called HTT Exon 1 Q48; 48Q HTT Exon-1
T1 sequence (chain, as listed by the source mutant limits assumed): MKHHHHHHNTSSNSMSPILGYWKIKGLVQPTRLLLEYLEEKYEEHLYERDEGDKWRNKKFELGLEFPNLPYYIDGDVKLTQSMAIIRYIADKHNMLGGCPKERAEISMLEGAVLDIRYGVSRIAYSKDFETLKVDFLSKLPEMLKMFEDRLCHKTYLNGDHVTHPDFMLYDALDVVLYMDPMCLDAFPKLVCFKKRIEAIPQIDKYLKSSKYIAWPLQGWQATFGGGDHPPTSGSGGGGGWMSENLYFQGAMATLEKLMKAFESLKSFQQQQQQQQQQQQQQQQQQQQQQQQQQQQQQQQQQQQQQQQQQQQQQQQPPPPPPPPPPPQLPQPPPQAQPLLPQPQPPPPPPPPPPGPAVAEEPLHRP
assay text: HTT sandwich ELISA
measurement kind: EC50 (nM)
One number for each entry, in nM.

Can you look up the measured EC50 of ATL_0006186 (antibody, V domains shown, HD patient (ENBB) HCDR3 in ATL5901 VH, ATL5901 VL; also called ATL_6186; ATL6186) VH: EVQLVESGGGLVKPGGSLRLSCAASGFTFNKAWMSWVRQAPGKGLEWVGRIKSGIDAGTTDYAAPVKGRFTISRDDSKATLYLQMNSLKTEDTAVYYCTPPPYYYYGLNVWGQGTTVTVSS VL: QSALTQPASVSGSPGQSITISCTGTSSDVGGYKLVSWYQQHPGRAPKLMIYEVSKRPSGVSSRFSGSKSGSTASLTISGLQAEDEADYYCSSYAGSSVVFGGGTKLTVL for me?
11.1

The reported measurements were obtained from patent US20260209320A1.
